Target: 17beta-HSD3 (Rattus norvegicus)
Test: Inhibition of 17beta-HSD3
READOUT_TYPE: IC50 (µM)
One number for each entry, in µM.

Here's what some known entries look like.
[
  {
    "SMI": "CCCCCCCCCC(=O)c1ccc(O)cc1",
    "IC50 (µM)": 4.97
  },
  {
    "SMI": "CCCCCC(=O)c1ccc(O)cc1",
    "IC50 (µM)": 18
  },
  {
    "SMI": "CCCCCCCC(=O)c1ccc(O)cc1",
    "IC50 (µM)": 6.52
  },
  {
    "SMI": "CCCCCCC(=O)c1ccc(O)cc1",
    "IC50 (µM)": 7.84
  }
]

Now look at this one.
Bench note: what IC50 did CCCCCCCCCCCC(=O)c1ccc(O)cc1 show?
7.55
